meta.source: paper PMC5540273

Tested on: CIT;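 also: KINOMEscan kinase panel screen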
Details: concentration: 1 μM, replicates: in singlicate; n = 1
Class (by %Inh) -- band A (below 9%), band B (9% to below 40%), band C (40% or more)

These recorded examples may help you get a feel for the data.
Compound | Assayed Target | Group
Cc1ccc(NC(=O)c2ccnc(N3CCCCC3)c2)cc1-c1ccc(C(=O)NCC2CC2)cc1 | CIT | band B
Nc1ncc(-c2cn[nH]c2)c2scc(-c3ccc4c(c3)CCN4C(=O)Cc3ccccc3)c12 | CIT | band A

Bin? `COc1ccc(C2=C(Nc3cccc(O)c3)C(=O)NC2=O)cc1`
band A

Bin? `COc1cccc(CC(=O)N2CCc3cc(-c4cn(C)c5ncnc(N)c45)ccc32)c1`
band A

Bin? `CCNc1nccc(-c2c(-c3ccc(F)cc3)ncn2C2CCN(C)CC2)n1`
band B

Bin? `Cc1cccc(Nc2nc(N[C@H]3CCCC[C@H]3N)ncc2C(N)=O)c1.Cl`
band C

Bin? `Cc1ccc(NC(=O)c2ccc(Cl)c(Cl)c2)cc1-c1ccc(C(=O)Nc2ccncc2)cc1`
band C
